- Assay summary: Toxicity liver stage against HepG2, at 10uM
- Type: cell-based
- Design: test concentration 10 uM, cell line HepG2-A16-CD81EGFP
- Condition notes: human, HepG2-A16-CD81EGFP cells; read-out: INHIBITION
Each entry below carries its reported cytotoxicity at 10 µM.
Property: cytotoxicity at 10 µM (%)

- Cc1ccnc(N2CCC(C(N)=O)CC2)n1: -18.3
- O=C(C1CCC1)N1CCCn2nc(CNc3ncccn3)cc2C1: -123
- CCOC(C)c1noc(CN2CCN(Cc3cccc(F)c3)CC2)n1 (configuration not stated): 7.66
- CCc1c(C(=O)N2CC[C@H](N3CCOCC3)[C@H](CCCO)C2)csc1C: -141
- O=C(C(CNCc1ccncc1)c1ccccc1)N1CCOCC1 (configuration not stated): -19
- O=C(NCC1CC1)[C@H]1C[C@@H]2[C@@H](C1)OCCN2Cc1cccnc1: 4.09
- COc1ccccc1-n1c(CC(C)C)nnc1SCC(=O)O: -6.71
- Cc1nc(CN2CCCC(Cn3cncn3)C2)no1 (configuration not stated): 4.34
- CC1CCN(C(=O)c2cnn3c(-c4ccco4)ccnc23)CC1: 8.77
- Cc1nnc2n1CCN(Cc1nc3c(F)cccc3[nH]1)C2: -2.3
- CC(O)C1CCN(c2cc(Cl)ccc2C#N)CC1 (configuration not stated): 4.92
- COCCNC(=O)Cn1cc(NC(=O)c2cccc(Cl)c2Cl)cn1: -7.04
- O=S(=O)(Cc1cccc2cccnc12)NC(CO)c1ccco1 (configuration not stated): 4.22
- Cc1cc(-c2cnc(N3CCCCCC3)nc2-c2cccnc2C)on1: -8.75
- COC(=O)[C@H](C)NC(=O)Cn1ccc2ccc(F)cc21: -0.112
- Cc1nc(C)n(CC2CN(Cc3ccncc3)Cc3nccn3C2)n1 (configuration not stated): -142
- COC(=O)C1CCCN1C(=O)c1ccc(-n2nc(C)cc2C)cc1 (configuration not stated): -10.5
- CN(C)c1ccc(C(=O)N2CCCC(n3cncn3)C2)nn1 (configuration not stated): 0.47
- CCc1nccn1C1CCCN(C(=O)c2ccc(OC)c(OC)c2)C1 (configuration not stated): -20.6
- CC(C)CNC(=O)Nc1cccc(CN2CCOC2=O)c1: -1.1
- CS(=O)(=O)N1CCN(Cc2csc(-c3ncccn3)n2)CC1: -4.71
- CN(CCOc1ccc(C#N)cc1)CC1CCS(=O)(=O)C1 (configuration not stated): -6.94
- Cc1nn(C)c(N(C)C)c1CNC1CCOc2ccccc21 (configuration not stated): -9.66
- Cc1cccc(OCCC(=O)N2CCCN(CC(N)=O)CC2)c1C: -7.28
- Cc1c(F)cc(C(=O)O)cc1S(=O)(=O)Nc1cccc(C(F)F)c1: -1.35
- CCc1nc(C2CCCN2CC(=O)NCCOc2ccccc2)no1 (configuration not stated): -16.4
- O=C(Cn1cnc2ccccc2c1=O)Nc1cc(C2CC2)n[nH]1: 49.4
- CCOc1cc(=O)n2c(c1C(=O)OCc1cccc(C)c1)CCCC2: -15.1
- CN1C(=O)Cc2cc(-c3csc(CCN4CCOC4=O)n3)ccc21: -11.5
- CSc1nsc(SCC(=O)c2cc3c(cc2Cl)NC(=O)C3)n1: 5.13
- COCCc1noc(CN2CC(C)(c3ccccc3)CCC2=O)n1 (configuration not stated): 3.1
- COc1ccccc1N1CCN(C(=O)Cn2nc(C)c(C)c2C)C(C)C1 (configuration not stated): 2.96
- CCc1ccc(-c2cn(CCSc3ncn[nH]3)nn2)nc1: -0.89
- O=C1CC[C@@H]2[C@@H](CCN2C(=O)c2ccsc2)N1Cc1ccncc1: -71.5
- COCc1n[nH]/c(=N/C(=O)COc2cnc(C)cc2O)s1: 5.84
- Cc1nn(C)cc1CN(C)C(=O)c1cccnc1: 0.992
- Cc1cc(Oc2ccc(NC(=O)C3CC3)cc2)cc(C2CCNCC2)n1: -6.18
- CCNS(=O)(=O)c1cccc(CSC)c1: 5.5
- CC(c1nc(C(C)(C)C)no1)S(=O)(=O)CC(=O)N1CCCC1 (configuration not stated): -2.21
- CC(NCc1cnc(N2CCOCC2)nc1)c1ccc(Cl)s1 (configuration not stated): -4.9
- Cc1noc(C)c1CC(=O)NCC(CC(C)C)N1CCOCC1 (configuration not stated): -40.6
- CCC1(CO)CCN(C(=O)c2cc(COc3ccccc3F)[nH]n2)CC1: 4.45
- Cc1ccc(C(=O)N2C[C@H]3CC[C@@H](C2)N(Cc2ccccc2)C3)cn1: -140
- Cc1cnn(C2CCCN(C(=O)c3cc(-c4cccs4)n[nH]3)C2)c1 (configuration not stated): -7.83
- CC(=O)N1N=C(c2ccccc2)OC1C(=O)NCCN(C(C)C)C(C)C (configuration not stated): 0.238
- COCCCN(C(=O)c1ccc(-n2ccnc2)cc1)C1CCN(C)CC1: -15.8
- Cc1nc([C@@H]2C[C@@H]3CCN(C(=O)Cc4cccs4)C[C@H]3O2)no1: 3.27

###

- Assay summary: Toxicity liver stage against HepG2, at 10uM
- Assay type: cell-based
- Design: test concentration 10 uM, cell line HepG2-A16-CD81EGFP
- Condition notes: human, HepG2-A16-CD81EGFP cells; read-out: INHIBITION
Property: cytotoxicity at 10 µM

• COc1ccc(CN2CC[C@@H](N)[C@@H](OC)C2)cc1Cn1cncn1 = -3.7%
• O=C(NC1CCN(c2ncccc2F)C1)c1cccc(-n2ccnn2)c1 (stereo not given) = 7.49%
• COc1c(C2CCCN2c2ncnc3sccc23)c(C)nn1C (stereo not given) = 21.5%
• c1cc2nc(C3CCNCC3)nn2cc1NC1CCC1 = -98.8%
• CCOC(=O)CCNC(=O)c1nc(OCC)ccc1Cl = -7.6%
• CN(C)C(=O)CN1C(=O)[C@@H]2CC[C@H]1CN(Cc1ccccc1C#N)C2 = 1.22%
• CCN1Cc2ccccc2N(C(=O)C2CCC2)CCC1=O = -3.53%
• CC(C)[C@H]1CN(CCCO)C[C@@H]1NC(=O)CCS(C)(=O)=O = 2.91%
• CN(Cc1cnn(C)c1)C(=O)NCc1ccc2c(c1)OCCO2 = -8.01%
• CCS(=O)(=O)N1CCCCC1c1nc(C(C)C)no1 (stereo not given) = 13.6%
• CCc1noc(C(C)N2CCC(C)CC2)n1 (stereo not given) = -7.6%
• O=c1[nH]c2nc(NCC3CCCO3)ncc2c(=O)n1-c1ccc(F)cc1 (stereo not given) = -5.89%
• O=C1CCN(C(=O)NCC(c2ccccc2)c2ccccc2)CCN1 = -1.44%
• CCS(=O)(=O)N1CCCN(CCCOC)CC1 = 7.73%
• CC(C1CCN(Cc2ccc(OC(F)F)cc2)CC1)N1CCOCC1 (stereo not given) = -2.38%
• Nc1ncnc2c1ncn2[C@H]1CCN(Cc2ccsc2)CC[C@@H]1O = -4.25%
• CNS(=O)(=O)c1cc(C)c2[nH]c(=O)cc(C)c2c1 = -7.76%
• Cc1nc(C2CCCN(C(=O)c3ccc(Cl)cn3)C2)no1 (stereo not given) = -10.4%
• CN(Cc1nc(-c2cccs2)no1)Cc1nc2c(s1)CCCC2 = 3.01%
• CC1COCCN1C(=O)Nc1cnc2c(cnn2C(C)C)c1 (stereo not given) = -2.21%
• Cc1cc(NCCSc2nccn2C)n2ncnc2n1 = 17.5%
• COC(=O)NCC(=O)N1CCC(c2nc3cc(F)ccc3[nH]2)CC1 = 3.67%
• COC(=O)N1CCCCC1C(=O)N1CCC(c2ccncc2)CC1 (stereo not given) = 11.7%
• CC(C)N1CCN(CCn2cnc3c(F)cccc3c2=O)CC1 = 1.64%
• CCc1nnc2n1CC(CNCc1nc(-c3ccsc3)no1)CC2 (stereo not given) = -5.34%

###

Each entry below carries its reported cytotoxicity at 10 µM.
- Assay summary: Toxicity liver stage against HepG2, at 10uM
- Assay type: cell-based
- Parameters: test concentration 10 uM, cell line HepG2-A16-CD81EGFP
- Condition notes: human, HepG2-A16-CD81EGFP cells; read-out: INHIBITION
Property: cytotoxicity at 10 µM (%)

- CN(C(=O)c1cnc(N2CCOCC2)nc1)C1Cc2ccccc2C1: -3.97
- CN(Cc1cccnc1)C[C@@H]1OC[C@H]2CN(C(=O)C3CC3)CC[C@H]21: -136
- Cc1nn(C(C)C)c(C)c1CN1CCN(C2CCCCC2)C(=O)C1: 6.63
- COc1ccccc1CCN1CCCC(CN(C)Cc2c[nH]c(C)n2)C1 (stereo not given): 6.74
- CN(CC(=O)Nc1cccnc1)C1CCCN(c2cccnn2)C1 (stereo not given): -2.42
- CCOC1CCCN(C(=O)c2sccc2-n2cnnn2)C1 (stereo not given): 4.39
- Cc1c(C(=O)NCCCS(C)(=O)=O)cccc1-c1ccccn1: 4.83
- Cc1ccc(C(=O)N2CC[C@@H]3CN(C4CCOCC4)CCO[C@@H]3C2)o1: -121
- COc1ccc(CN2CC[C@H]3O[C@@H](C(=O)NCC4CC4)CC[C@H]32)cc1: 7.31
- Cc1ccc(C(=O)NS(=O)(=O)c2ccccc2C)c(=O)[nH]1: -8.48

The reported numbers originate from ChEMBL document CHEMBL4513216.
